For each entry below, report its metabolised at 4 h value.
# EXPERIMENT_NOTES: Metabolism measured as percent loss at 4 hours in rat hepatocytes
# Type: ADME, cell-based, Hepatocyte
# SETTINGS: read-out: Metabolism
Entry rule: numbers only, all in %.

[Q] Which metabolised at 4 h value is on record for COC[C@@H](C)Nc1nccc(-c2c(-c3ccc(F)cc3)c(=O)n(C)n2C2CCNCC2)n1.O=C(O)C(F)(F)F ?
[A] 0

[Q] Which metabolised at 4 h value is on record for C[C@H](Nc1nccc(-c2c(-c3ccc(F)cc3)c(=O)n(C3CCNCC3)n2C)n1)c1ccccc1.O=C(O)C(F)(F)F ?
[A] 32

[Q] Which metabolised at 4 h value is on record for C[C@H](Nc1nccc(-c2c(-c3ccc(F)cc3)c(=O)n(C)n2C)n1)c1ccccc1 ?
[A] 44

[Q] Which metabolised at 4 h value is on record for COCCn1c(-c2ccnc(N[C@@H](C)c3ccccc3)n2)c(-c2ccc(F)cc2)c(=O)n1C ?
[A] 30
